B1: Pistol ribozyme (parent)
chain: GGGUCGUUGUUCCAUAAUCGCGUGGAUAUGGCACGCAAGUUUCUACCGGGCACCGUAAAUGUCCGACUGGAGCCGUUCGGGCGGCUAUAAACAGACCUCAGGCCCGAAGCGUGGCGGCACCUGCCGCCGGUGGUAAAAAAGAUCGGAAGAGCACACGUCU

- Variants of: B1
- ASSAY SUMMARY: aptazyme ON/OFF ratio, guanine; higher = stronger switching; co-transcriptional cleavage with and without guanine
READOUT KIND: aptazyme ON/OFF ratio
No unit in the answer, please; the number alone is enough.

// below: answered variants
U7C U8A G9A U11C C12U C13A :: 1.17
U7G U8A G9A U10C U11A C12A :: 1.12
U7C U8G G9C U11G C12G C13G :: 1.1
U8G G9A U10C U11G C12A C13G :: 1.18
U7C U8C G9U U10G U11C C13A :: 1.29
U8A U10A U11A C12G :: 1.07
U7A U8G G9A U10C U11A C12U :: 1.2
U7A U8C G9C U10G U11A C12G C13U :: 1.08

Please fill in: aptazyme ON/OFF ratio reported for U7A U8C G9U U10A U11G C13U = 1.23

In plain terms, U7A U8C U10G U11A C13A has a documented aptazyme ON/OFF ratio of 1.12

Memo: U7C G9A U10A U11C C12G C13U , reported aptazyme ON/OFF ratio: 1.12

Please fill in: aptazyme ON/OFF ratio reported for U7C U8C G9U C12A C13A = 1.05
